Tested on: K562
Assay: NCI tumour cell line growth inhibition, 48 h
Activity calls are given as the source filed them. Rule as the data show it: active = GI50 up to about 1.1 µM and inactive = higher.
In this exercise, the only acceptable responses are T = active, F = inactive

Q: Test call for this compound, please: C=C1C(=O)OC2/C=C(\C=O)CC/C=C(\C)C(O)C[C@@H]12 (some centres not stated)
Ans: F

Q: Test call for this compound, please: `COc1ccc(/C=C2\Sc3nnc(CNc4ccc(Cl)cc4)n3N=C2c2cc(F)c(Cl)cc2Cl)cc1OC`
Ans: F

Q: Test call for this compound, please: NC1=NCC(CN2CCCCC2)O1 (configuration not stated)
Ans: F

Q: Test call for this compound, please: `N#Cc1c(C#N)c(-c2ccccc2)n(Cc2ccccc2)c1N`
Ans: F

Q: Test call for this compound, please: `Cc1ccc(S(=O)(=O)Oc2cc(-c3ccccc3)nc3ccccc23)cc1`
Ans: T

Q: Test call for this compound, please: `O=C1C(=C/C=C2/SC(c3ccccc3)(c3ccccc3)c3ccccc32)C(=O)c2ccccc21`
Ans: F

Q: Test call for this compound, please: O=C(O)C1c2ccccc2C(C(=O)O)c2ccccc21 (configuration not stated)
Ans: F

----------
Exercise: for every item that follows, state its recorded GI50.
Test system: SF-295
Test: NCI tumour cell line growth inhibition, 48 h
Calls of active or inactive are those of the source. Cut-off read from the data, not from the text of the source: active = GI50 up to about 1.1 µM and inactive = higher.

COMPOUND | GI50
N#[N+][c-]1c(-c2ccccc2)n[nH]c1=O | > 100 µM (inactive)
Clc1cccc(N/N=N/c2ccc(-c3nc4ccccc4s3)cc2)c1 | > 100 µM (inactive)
N=C(N)SCc1ccc2c(c1)Sc1ccccc1O2 | 10.5 µM (inactive)
CCOc1cc2c(cc1O)C=C[C@@H]1[C@@H]2CC[C@]2(C)[C@@H](O)CC[C@@H]12 | 1.91 µM (inactive)
CCCCCCCCCCC/C=C(/C(=O)CCCO[Si](C)(C)C(C)(C)C)C(=O)OC | > 100 µM (inactive)

Your task in this section: give GI50 for each listed record.
1. CCOC(=O)/C(C(=O)Nc1cccc(Cl)c1)=C(/N)N1CCCC1
2. O=C(/C=C/c1ccc(-c2ccccc2)cc1)NCc1ccc(C(=O)NCCc2c[nH]c3ccccc23)cc1
3. C[C@@H]1OC(=O)C[C@H]2CC(=O)N(CCC3CN(C(=O)OCc4ccccc4)c4ccccc43)C[C@@H]21 (some centres not stated)
4. COC(=O)/C(C=O)=C/Sc1ccccc1
5. Clc1ccc(Cl)c(SCCCN2CCNCC2)c1
6. O=C(c1cscc1CCc1ccccc1)c1cscc1CCc1ccccc1
7. COc1ccc(/C=C2/CSCC3=C2N=C(S)NC3c2ccc(OC)c(OC)c2OC)c(OC)c1OC (configuration not stated)

Ans:
["> 100 µM (inactive)", "11.1 µM (inactive)", "> 100 µM (inactive)", "30.1 µM (inactive)", "17.8 µM (inactive)", "> 100 µM (inactive)", "32.6 µM (inactive)"]

----------
Exercise: for every item that follows, state its recorded GI50.
Tested on: MDA-MB-231
Test: NCI tumour cell line growth inhibition, 48 h
Counter-ions that a name gives are not always drawn. Calls of active or inactive are those of the source. Cut-off read from the data, not from the text of the source: active = GI50 up to about 1.1 µM and inactive = higher.

COMPOUND | GI50
Cc1ccc([S+]([O-])c2sccc2C=O)cc1 (stereo not drawn) | 26.4 µM (inactive)
CC(/C=C/c1ccc([N+](=O)[O-])o1)=N/N1CC(CN2CCOCC2)OC1=O (stereo not drawn) | 23.6 µM (inactive)
CCCCCCCCCCC/C=C(/C(=O)CCCO[Si](C)(C)C(C)(C)C)C(=O)OC | > 100 µM (inactive)
CNNCc1ccc(C(=O)NC(C)C)cc1 [PROCARBAZINE HYDROCHLORIDE] | > 500 µM (inactive)
COc1ccc(C2CC(C)(O)Oc3cc4c(cc32)OCO4)cc1 (stereo not drawn) | 32.6 µM (inactive)
O=C(/C=C/c1ccc(C(F)(F)F)cc1)c1c([O-])on[n+]1-c1ccccc1 | 4.53 µM (inactive)
COc1ccc(N2CN3OC(=O)N(c4ccc(OC)cc4)[C@@]3(c3ccccc3)C2)cc1 | 10 µM (inactive)

Quick note, GI50 for `COc1cc(/C=N/c2ccc(Oc3ccc(Cl)cc3)c(Cl)c2)cc(OC)c1OC` landed at 16.8 µM (inactive)
